details: in acetone, 288.15 K
resultType: solubility (mole fraction)
Output spec: single numeric token, no unit.

Q: // returns reported solubility (mole fraction) for input `CN1CCN(C2=Nc3cc(Cl)ccc3Nc3ccccc32)CC1`
A: 0.0151

----------
settings: in ethyl acetate, 278.15 K
resultType: solubility (mole fraction)
// keep it numeric: no unit symbol after the value

Q: Item `CN1CCN(C2=Nc3cc(Cl)ccc3Nc3ccccc32)CC1` has what recorded solubility (mole fraction)?
A: 0.0109

----------
details: in ethyl formate, 318.15 K
resultType: solubility (mole fraction)
Form rule: numeric answer, no unit written next to it.

Q: Query (molecule): `CN1CCN(C2=Nc3cc(Cl)ccc3Nc3ccccc32)CC1` ; field requested: solubility (mole fraction)
A: 0.0527

----------
settings: in acetone, 278.15 K
resultType: solubility (mole fraction)

Q: solubility (mole fraction) lookup needed for `CN1CCN(C2=Nc3cc(Cl)ccc3Nc3ccccc32)CC1` , thanks.
A: 0.0116

----------
conditions: in sec-butanol, 288.15 K
resultType: solubility (mole fraction)
The response must contain the number and no unit.

Q: Param item = `CN1CCN(C2=Nc3cc(Cl)ccc3Nc3ccccc32)CC1` ; retrieve measured solubility (mole fraction).
A: 0.00566

----------
conditions: in ethanol, 283.15 K
resultType: solubility (mole fraction)
Please reply with the number alone, leaving off any unit.

Q: Which solubility (mole fraction) value belongs to `CN1CCN(C2=Nc3cc(Cl)ccc3Nc3ccccc32)CC1` ?
A: 0.0059

----------
conditions: in DMF, 313.15 K
resultType: solubility (mole fraction)
Output: the number by itself.

Q: Query: solubility (mole fraction); subject: `CN1CCN(C2=Nc3cc(Cl)ccc3Nc3ccccc32)CC1`
A: 0.135

----------
conditions: in ethanol, 293.15 K
resultType: solubility (mole fraction)
API note: the answer field is a bare number with no unit suffix.

Q: Form field: reported solubility (mole fraction) of `CN1CCN(C2=Nc3cc(Cl)ccc3Nc3ccccc32)CC1`
A: 0.00735

----------
conditions: in isobutanol, 288.15 K
resultType: solubility (mole fraction)
Give a plain numeric answer without units written out.

Q: Which value of solubility (mole fraction) has been reported for `CN1CCN(C2=Nc3cc(Cl)ccc3Nc3ccccc32)CC1` in the records?
A: 0.00809

----------
settings: in sec-butanol, 283.15 K
resultType: solubility (mole fraction)

Q: Endpoint output: solubility (mole fraction) of `CN1CCN(C2=Nc3cc(Cl)ccc3Nc3ccccc32)CC1` . Value?
A: 0.00509

----------
conditions: in methyl acetate, 288.15 K
resultType: solubility (mole fraction)
Respond using a number only.

Q: Item under review: `CN1CCN(C2=Nc3cc(Cl)ccc3Nc3ccccc32)CC1` . Reported solubility (mole fraction)?
A: 0.0158

----------
details: in ethyl acetate, 323.15 K
resultType: solubility (mole fraction)
Just the number.

Q: Fill blank: measured solubility (mole fraction) of the compound `CN1CCN(C2=Nc3cc(Cl)ccc3Nc3ccccc32)CC1` is ____.
A: 0.0283

----------
conditions: in isopentanol, 293.15 K
resultType: solubility (mole fraction)
Hey, just send me the number, nothing else.

Q: Any idea what solubility (mole fraction) was measured for `CN1CCN(C2=Nc3cc(Cl)ccc3Nc3ccccc32)CC1` ?
A: 0.0116

----------
details: in THF, 298.15 K
resultType: solubility (mole fraction)

Q: For `CN1CCN(C2=Nc3cc(Cl)ccc3Nc3ccccc32)CC1` , what is its reported solubility (mole fraction)?
A: 0.0815

----------
details: in isopropanol, 293.15 K
resultType: solubility (mole fraction)
Respond using a number only.

Q: State the recorded solubility (mole fraction) for this entry: `CN1CCN(C2=Nc3cc(Cl)ccc3Nc3ccccc32)CC1`
A: 0.00419

----------
conditions: in chloroform, 308.15 K
resultType: solubility (mole fraction)
The response must contain the number and no unit.

Q: Param item = `CN1CCN(C2=Nc3cc(Cl)ccc3Nc3ccccc32)CC1` ; retrieve measured solubility (mole fraction).
A: 0.0801

----------
details: in acetone, 298.15 K
resultType: solubility (mole fraction)
Quick one: just the number, no unit, thanks!

Q: What measured solubility (mole fraction) goes with `CN1CCN(C2=Nc3cc(Cl)ccc3Nc3ccccc32)CC1` ?
A: 0.0197

----------
conditions: in sec-butanol, 318.15 K
resultType: solubility (mole fraction)
Output spec: single numeric token, no unit.

Q: I would be grateful if you could share the reported solubility (mole fraction) for `CN1CCN(C2=Nc3cc(Cl)ccc3Nc3ccccc32)CC1` .
A: 0.00975

----------
settings: in methyl acetate, 313.15 K
resultType: solubility (mole fraction)

Q: I have this molecule here, `CN1CCN(C2=Nc3cc(Cl)ccc3Nc3ccccc32)CC1` , and I need its recorded solubility (mole fraction).
A: 0.0251

----------
conditions: in isopropanol, 323.15 K
resultType: solubility (mole fraction)
// print number alone

Q: Look up solubility (mole fraction) for this compound: `CN1CCN(C2=Nc3cc(Cl)ccc3Nc3ccccc32)CC1`
A: 0.00894

----------
settings: in ethyl formate, 288.15 K
resultType: solubility (mole fraction)
No unit in the answer, only the number.

Q: What measured solubility (mole fraction) goes with `CN1CCN(C2=Nc3cc(Cl)ccc3Nc3ccccc32)CC1` ?
A: 0.0367

----------
conditions: in n-pentanol, 288.15 K
resultType: solubility (mole fraction)

Q: Item under review: `CN1CCN(C2=Nc3cc(Cl)ccc3Nc3ccccc32)CC1` . Reported solubility (mole fraction)?
A: 0.0115

----------
details: in methanol, 313.15 K
resultType: solubility (mole fraction)
Answer with the value's number alone.

Q: I am curious: what solubility (mole fraction) value has been reported for `CN1CCN(C2=Nc3cc(Cl)ccc3Nc3ccccc32)CC1` ?
A: 0.012

----------
conditions: in isopentanol, 298.15 K
resultType: solubility (mole fraction)
Lab note: record the figure alone, no unit after it.

Q: solubility (mole fraction) lookup needed for `CN1CCN(C2=Nc3cc(Cl)ccc3Nc3ccccc32)CC1` , thanks.
A: 0.0128

----------
settings: in methyl acetate, 298.15 K
resultType: solubility (mole fraction)
Lab note: record just the number, no unit beside it.

Q: Query (compound): `CN1CCN(C2=Nc3cc(Cl)ccc3Nc3ccccc32)CC1` ; field requested: solubility (mole fraction)
A: 0.019

----------
settings: in chloroform, 303.15 K
resultType: solubility (mole fraction)
Please state the value as a number alone, without comment.

Q: Any idea what solubility (mole fraction) was measured for `CN1CCN(C2=Nc3cc(Cl)ccc3Nc3ccccc32)CC1` ?
A: 0.0771

----------
settings: in sec-butanol, 298.15 K
resultType: solubility (mole fraction)
Number only, no unit.

Q: Given the compound `CN1CCN(C2=Nc3cc(Cl)ccc3Nc3ccccc32)CC1` , what is its reported solubility (mole fraction)?
A: 0.0068

----------
conditions: in n-butanol, 308.15 K
resultType: solubility (mole fraction)
Enter the number alone.

Q: Would you kindly share the measured solubility (mole fraction) for `CN1CCN(C2=Nc3cc(Cl)ccc3Nc3ccccc32)CC1` ?
A: 0.0154

----------
conditions: in methyl acetate, 293.15 K
resultType: solubility (mole fraction)
Note: the reply should be a number with no unit written.

Q: // solubility (mole fraction) lookup, key: `CN1CCN(C2=Nc3cc(Cl)ccc3Nc3ccccc32)CC1`
A: 0.0173

----------
conditions: in acetonitrile, 293.15 K
resultType: solubility (mole fraction)

Q: Request the reported solubility (mole fraction) associated with `CN1CCN(C2=Nc3cc(Cl)ccc3Nc3ccccc32)CC1`
A: 0.00285

----------
details: in n-propanol, 313.15 K
resultType: solubility (mole fraction)
Lab note: record just the number, no unit beside it.

Q: Form field: reported solubility (mole fraction) of `CN1CCN(C2=Nc3cc(Cl)ccc3Nc3ccccc32)CC1`
A: 0.0164

----------
settings: in 2-butanone, 318.15 K
resultType: solubility (mole fraction)
Form: value (number only, do not type unit).

Q: Reported solubility (mole fraction) for `CN1CCN(C2=Nc3cc(Cl)ccc3Nc3ccccc32)CC1` : what is it?
A: 0.0505

----------
conditions: in n-butanol, 323.15 K
resultType: solubility (mole fraction)
Response field accepts a number only; no unit should be typed.

Q: Param item = `CN1CCN(C2=Nc3cc(Cl)ccc3Nc3ccccc32)CC1` ; retrieve measured solubility (mole fraction).
A: 0.0208

----------
details: in isopropanol, 298.15 K
resultType: solubility (mole fraction)
Just the number, please, no unit after it.

Q: Consider the molecule `CN1CCN(C2=Nc3cc(Cl)ccc3Nc3ccccc32)CC1` and give its measured solubility (mole fraction).
A: 0.00487

----------
conditions: in n-propanol, 278.15 K
resultType: solubility (mole fraction)

Q: Given the compound `CN1CCN(C2=Nc3cc(Cl)ccc3Nc3ccccc32)CC1` , what is its reported solubility (mole fraction)?
A: 0.00708

----------
conditions: in DMF, 303.15 K
resultType: solubility (mole fraction)
Respond numerically, and do not add a unit to the figure.

Q: // solubility (mole fraction) lookup, key: `CN1CCN(C2=Nc3cc(Cl)ccc3Nc3ccccc32)CC1`
A: 0.123

----------
settings: in ethyl acetate, 293.15 K
resultType: solubility (mole fraction)
Just the number, please, no unit attached.

Q: Reported solubility (mole fraction) for `CN1CCN(C2=Nc3cc(Cl)ccc3Nc3ccccc32)CC1` : what is it?
A: 0.0152
